# experimental_system: T1, glucose-dependent insulinotropic peptide (gastric inhibitory polypeptide) receptor (GIPR) (human, UniProt P48546 22-466)
# T1 sequence (looked up): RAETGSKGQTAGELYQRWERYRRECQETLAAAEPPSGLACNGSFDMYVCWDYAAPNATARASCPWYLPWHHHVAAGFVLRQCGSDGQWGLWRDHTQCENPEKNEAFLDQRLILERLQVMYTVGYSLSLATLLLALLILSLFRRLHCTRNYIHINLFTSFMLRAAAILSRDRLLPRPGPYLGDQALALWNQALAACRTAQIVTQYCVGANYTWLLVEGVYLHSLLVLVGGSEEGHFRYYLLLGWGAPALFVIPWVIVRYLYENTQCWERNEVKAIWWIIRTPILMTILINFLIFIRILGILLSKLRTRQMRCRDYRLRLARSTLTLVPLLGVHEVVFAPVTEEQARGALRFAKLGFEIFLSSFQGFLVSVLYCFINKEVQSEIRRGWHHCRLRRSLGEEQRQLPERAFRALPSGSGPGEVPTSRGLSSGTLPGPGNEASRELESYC
# procedure_summary: cell-based or functional assay
Starred links: 1 amine or outer side, 2 acyl side, 3 side chain; linkers in the order of their positions; H or OH if unused. Non-standard residues stand in square brackets, D forms with d. Groups on a side chain read outwards from the residue. Primed or numbered codes have the meaning given here. No end group written: not given here. *: point of attachment. γGlu = O=C(O)[C@H](CCC(=O)[*:2])N[*:1]; Stearoyl = CCCCCCCCCCCCCCCCCC(=O)*; Palmitoyl = CCCCCCCCCCCCCCCC(=O)*; αMeF = C[C@](N)(Cc1ccccc1)C(=O)O; αMeK = C[C@](N)(CCCCN)C(=O)O; Lauroyl = CCCCCCCCCCCC(=O)*; αMeS = C[C@](N)(CO)C(=O)O; PEG2′ = not defined here; Aib = CC(C)(N)C(=O)O
reported_endpoint: cAMP Primary assay EC50 GIP-R (2nd) (nM)
Numeric only. Scale: nM

**Q:** Consider the binder HK([γGlu-Palmitoyl])EGS[αMeF]TSDV[αMeS]S[αMeF]LEGEAA[αMeK]E[αMeF]IA[αMeF]VV[αMeK]GG-NH2 [SEQ ID NO 98] and give its measured cAMP Primary assay EC50 GIP-R (2nd).
**A:** 28

**Q:** Look up cAMP Primary assay EC50 GIP-R (2nd) for this binder: HK([PEG2′-PEG2′-γGlu-Stearoyl])EGS[αMeF]TSDV[αMeS]S[αMeF]LEGEAA[αMeK]E[αMeF]IA[αMeF]VV[αMeK]GG-NH2 [SEQ ID NO 127]
**A:** 25.1

**Q:** Given H[Aib]EGS[αMeF]TSDV[αMeS]SK([PEG2′-PEG2′-γGlu-Stearoyl])LEGEAA[αMeK]E[αMeF]IA[αMeF]VV[αMeK]GG-NH2 [SEQ ID NO 116] , state its recorded cAMP Primary assay EC50 GIP-R (2nd).
**A:** 25.6

**Q:** # lookup: cAMP Primary assay EC50 GIP-R (2nd) of H[Aib]EGS[αMeF]TSDV[αMeS]S[αMeF]LEGEAA[αMeK]E[αMeF]IAK([PEG2′-PEG2′-γGlu-Stearoyl])VV[αMeK]GG-NH2 [SEQ ID NO 104]
**A:** 25.6

**Q:** What does the data say about its cAMP Primary assay EC50 GIP-R (2nd)? Entry: H[Aib]K([PEG2′-PEG2′-γGlu-Stearoyl])GS[αMeF]TSDV[αMeS]S[αMeF]LEGEAA[αMeK]E[αMeF]IA[αMeF]VV[αMeK]GG-NH2 [SEQ ID NO 126]
**A:** 25.4

**Q:** May I ask what cAMP Primary assay EC50 GIP-R (2nd) has been recorded for HXEGSFTSDVSKFLEGEAAKEFIAFVVKGG (Aib 2; α-MeF 6, 13, 22, 25; α-MeS 11; α-MeK 20, 28; K(ε-γE-Palmitoyl) 12; C-terminal amide) [SEQ ID NO 88] ?
**A:** 28

**Q:** For the binder H[Aib]EGS[αMeF]TSDV[αMeS]S[αMeF]LEGEAA[αMeK]E[αMeF]IA[αMeF]VV[αMeK]K([PEG2′-PEG2′-γGlu-Stearoyl])G-NH2 [SEQ ID NO 100] , what cAMP Primary assay EC50 GIP-R (2nd) is on record?
**A:** 24.9

**Q:** Which cAMP Primary assay EC50 GIP-R (2nd) value is on record for H[Aib]EGS[αMeF]TSDV[αMeS]S[αMeF]LEGEAAK([PEG2′-Stearoyl])E[αMeF]IA[αMeF]VV[αMeK]GG-NH2 [SEQ ID NO 152] ?
**A:** 28

**Q:** For the binder H[Aib]EGK([PEG2′-PEG2′-γGlu-Stearoyl])[αMeF]TSDV[αMeS]S[αMeF]LEGEAA[αMeK]E[αMeF]IA[αMeF]VV[αMeK]GG-NH2 [SEQ ID NO 124] , what cAMP Primary assay EC50 GIP-R (2nd) is on record?
**A:** 25.1

**Q:** # get_value(readout='cAMP Primary assay EC50 GIP-R (2nd)', item= H[Aib]EGS[αMeF]TSDV[αMeS]S[αMeF]LEGEAAK([PEG2′-PEG2′-Lauroyl])E[αMeF]IA[αMeF]VV[αMeK]GG-NH2 [SEQ ID NO 135] )
**A:** 27

**Q:** Returns the measured cAMP Primary assay EC50 GIP-R (2nd) for the input binder. Input: H[Aib]EGS[αMeF]TSDV[αMeS]K([PEG2′-PEG2′-γGlu-Stearoyl])[αMeF]LEGEAA[αMeK]E[αMeF]IA[αMeF]VV[αMeK]GG-NH2 [SEQ ID NO 117]
**A:** 25.1

**Q:** What does the record list as cAMP Primary assay EC50 GIP-R (2nd) for H[Aib]EGS[αMeF]TSDV[αMeS]S[αMeF]LEGEAA[αMeK]E[αMeF]K([PEG2′-PEG2′-γGlu-Stearoyl])A[αMeF]VV[αMeK]GG-NH2 [SEQ ID NO 106] ?
**A:** 25.3

**Q:** Using the record for H[Aib]EGS[αMeF]TSDV[αMeS]S[αMeF]LEGEAA[αMeK]K([PEG2′-PEG2′-γGlu-Stearoyl])[αMeF]IA[αMeF]VV[αMeK]GG-NH2 [SEQ ID NO 108] , report its cAMP Primary assay EC50 GIP-R (2nd).
**A:** 25.4

**Q:** Fill blank: measured cAMP Primary assay EC50 GIP-R (2nd) of the binder H[Aib]EGS[αMeF]TSDV[αMeS]S[αMeF]LEK([PEG2′-PEG2′-γGlu-Stearoyl])EAA[αMeK]E[αMeF]IA[αMeF]VV[αMeK]GG-NH2 [SEQ ID NO 113] is ____.
**A:** 24.9

**Q:** cAMP Primary assay EC50 GIP-R (2nd) for H[Aib]EGS[αMeF]TSDK([PEG2′-PEG2′-γGlu-Stearoyl])[αMeS]S[αMeF]LEGEAA[αMeK]E[αMeF]IA[αMeF]VV[αMeK]GG-NH2 [SEQ ID NO 119] ?
**A:** 25.2

**Q:** Given H[Aib]EGS[αMeF]TSDV[αMeS]S[αMeF]LEGEK([PEG2′-PEG2′-γGlu-Stearoyl])A[αMeK]E[αMeF]IA[αMeF]VV[αMeK]GG-NH2 [SEQ ID NO 111] , state its recorded cAMP Primary assay EC50 GIP-R (2nd).
**A:** 25

**Q:** Return reported cAMP Primary assay EC50 GIP-R (2nd); argument: H[Aib]EGS[αMeF]TSDV[αMeS]S[αMeF]LEGEAA[αMeK]E[αMeF]IA[αMeF]VV[αMeK]GK([PEG2′-PEG2′-γGlu-Stearoyl])-NH2 [SEQ ID NO 99]
**A:** 24.9
